# System name: Adenosine deaminase (Plasmodium falciparum)
# Sequence (Q86GS5 whole entry): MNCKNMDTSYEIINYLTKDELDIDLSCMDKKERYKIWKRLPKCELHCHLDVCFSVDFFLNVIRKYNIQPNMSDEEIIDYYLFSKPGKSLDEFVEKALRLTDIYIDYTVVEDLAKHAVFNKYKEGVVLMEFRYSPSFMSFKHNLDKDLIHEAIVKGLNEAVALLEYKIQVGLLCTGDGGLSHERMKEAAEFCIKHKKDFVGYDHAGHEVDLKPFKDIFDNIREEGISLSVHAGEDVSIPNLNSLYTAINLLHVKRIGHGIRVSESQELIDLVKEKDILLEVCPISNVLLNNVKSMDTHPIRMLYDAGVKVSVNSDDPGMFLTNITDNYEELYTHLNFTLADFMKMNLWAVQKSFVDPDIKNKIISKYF
# Protocol text: Inhibition of Plasmodium falciparum N-terminal thrombin cleavable His6-tagged ADA expressed in Escherichia coli BL21 assessed as reduction in formation of inosine using adenosine as substrate
Readout label: Ki (nM)

1) OC[C@H]1O[C@@H](n2cnc3c2N=CNC[C@H]3O)[C@H](O)[C@@H]1O = 0.68

----------
# System name: Purine nucleoside phosphorylase (Homo sapiens, UniProt P00491)
# Sequence (P00491 whole entry): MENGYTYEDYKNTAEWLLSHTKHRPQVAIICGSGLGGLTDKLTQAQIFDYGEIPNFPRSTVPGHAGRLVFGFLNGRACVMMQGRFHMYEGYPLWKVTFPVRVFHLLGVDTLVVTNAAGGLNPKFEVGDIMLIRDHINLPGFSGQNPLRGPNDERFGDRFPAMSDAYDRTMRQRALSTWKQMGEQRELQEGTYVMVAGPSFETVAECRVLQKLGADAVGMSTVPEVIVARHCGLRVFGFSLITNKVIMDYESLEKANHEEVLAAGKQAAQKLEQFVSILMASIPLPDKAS
pKi: −log10 of the molar value.
Readout label: pKi

1. O=c1[nH]cnc2c(CN3C[C@@H](CO)[C@H](O)C3)c[nH]c12 = 5.77

----------
# Protocol text: Inhibition of Plasmodium falciparum HGXPRT expressed in Escherichia coli BL21 (DE3) assessed as inhibitor constant for enzyme-inhibitor-substrate complex formation using [5'-14C]IMP as substrate by scintillation counting method
Readout label: Ki (nM)

1. O=c1[nH]cnc2c([C@@H]3N[C@H](COP(=O)(O)O)[C@@H](O)[C@H]3O)c[nH]c12 = 1
2. Nc1nc2c([C@@H]3N[C@H](COP(=O)(O)O)[C@@H](O)[C@H]3O)c[nH]c2c(=O)[nH]1 = 14
